Source listed as PubChem BioAssay (Tox21).

assay.explanation: qHTS assay to identify small molecule antagonists of the androgen receptor (AR) signaling pathway using the MDA cell line - cell viability counter screen (AID 743041; note: nearly all actives have a fitted effect of over 45% in size)
test.parameters: MDA-kb2 viability, CellTiter-Fluor, 16 h, cells co-treated with R1881 androgen agonist; series mostly up to 70.3 µM
Inconclusive results are not listed. The source made the active and inactive calls. Calls come from the whole dose curve; as a rule, active = well fitted cell-killing curve with a large enough effect in the repeat runs; inconclusive = weak or mixed curves, or effect the other way; inactive = flat fitted curve, though single readings scatter.
Mark one answer only. Choices: Y (active), N (inactive)

Use these answered entries as a reference point.
[
  {
    "compound": "CCCN(CCC)C(=O)C(CCC(=O)OCCCN1CCN(CCOC(=O)Cc2c(C)n(C(=O)c3ccc(Cl)cc3)c3ccc(OC)cc23)CC1)NC(=O)c1ccccc1 (centres undefined)",
    "category": "N"
  },
  {
    "compound": "CCCCC(CC)CN=C(N)NC(N)=NCCCCCCN=C(N)NC(N)=NCC(CC)CCCC (centres undefined)",
    "category": "Y"
  },
  {
    "compound": "CC(=O)S[C@@H]1CC2=CC(=O)CC[C@]2(C)[C@H]2CC[C@@]3(C)[C@@H](CC[C@@]34CCC(=O)O4)[C@H]12",
    "category": "N"
  }
]

Lab note: next compound to report on.
Dear colleague, could you share the recorded outcome for O=c1[nH]cnc2nc[nH]c12 when you have a moment? N

* * *

assay.explanation: qHTS assay for small molecule disruptors of the mitochondrial membrane potential - cell viability (AID 720634); note: nearly all actives have a fitted effect of over 20% in size
test.parameters: HepG2 viability, ATP luminescence (CellTiter-Glo), 1 h; series mostly up to 83.2 µM
Inconclusive results are not listed. Calls of active or inactive are those of the source. The call rests on the fitted dose curve.
Mark one answer only. Choices: Yes = active, No = inactive

Use these answered entries as a reference point.
[
  {
    "molecule": "Fc1ccc(C(c2ccc(F)cc2)N2CCN(C/C=C/c3ccccc3)CC2)cc1",
    "category": "No"
  },
  {
    "molecule": "CCCC1O[C@@H]2C[C@H]3[C@@H]4CCC5=CC(=O)C=C[C@]5(C)[C@H]4[C@@H](O)C[C@]3(C)[C@]2(C(=O)CO)O1 (stereo not given in full)",
    "category": "No"
  },
  {
    "molecule": "Cc1cc(O)c(C(C)(C)C)cc1Sc1cc(C(C)(C)C)c(O)cc1C",
    "category": "Yes"
  },
  {
    "molecule": "O=[N+]([O-])c1cc([N+](=O)[O-])c2ccc(S(=O)(=O)O)cc2c1O",
    "category": "No"
  },
  {
    "molecule": "Cc1cc(O)c(C(C)(C)C)cc1C(C)(C)C",
    "category": "Yes"
  }
]

Dear colleague, could you share the recorded outcome for C=C(C)C(=O)OCC[N+](C)(C)C when you have a moment? No

Dear colleague, could you share the recorded outcome for CCC(C)Nc1ccc(NC(C)CC)cc1 (stereo not given) when you have a moment? Yes

Dear colleague, could you share the recorded outcome for CCOC(=O)O[C@]1(C(=O)OCCl)CC[C@H]2[C@@H]3CCC4=CC(=O)C=C[C@]4(C)[C@H]3[C@@H](O)C[C@@]21C when you have a moment? No

Dear colleague, could you share the recorded outcome for NNc1nc(-c2ccc([N+](=O)[O-])cc2)cs1 when you have a moment? Yes

Dear colleague, could you share the recorded outcome for O=C(OCC1CO1)C1CCCCC1C(=O)OCC1CO1 (stereo not given) when you have a moment? No
